Test system: SK-HEP1
Assay explanation: Anticancer activity against human SK-HEP1 cells assessed as inhibition of cell proliferation by MTT assay
Type: functional, cell-based
Provide the reported pIC50 of each item.
Answers are plain numbers, as −log10 of the molar value.

[[record]]
molecular_string = "C[C@H](CCC(=O)OCc1ccc([N+](=O)[O-])cc1)[C@H]1CC[C@H]2[C@@H]3[C@H](O)C[C@@H]4C[C@H](O)CC[C@]4(C)[C@H]3CC[C@]12C"
numeric_value = 3.95

[[record]]
molecular_string = "C[C@H](CCC(=O)OCc1cccc(O)c1)[C@H]1CC[C@H]2[C@@H]3CC[C@@H]4C[C@H](O)CC[C@]4(C)[C@H]3CC[C@]12C"
numeric_value = 3.90

[[record]]
molecular_string = "CC(=O)Oc1ccc(OC(=O)CC[C@@H](C)[C@H]2CC[C@H]3[C@@H]4[C@H](O)C[C@@H]5C[C@H](O)CC[C@]5(C)[C@H]4CC[C@]23C)cc1"
numeric_value = 4.07

[[record]]
molecular_string = "C[C@H](CCC(=O)OCc1cc(O)cc(O)c1)[C@H]1CC[C@H]2[C@@H]3[C@H](O)C[C@@H]4C[C@H](O)CC[C@]4(C)[C@H]3CC[C@]12C"
numeric_value = 3.81

[[record]]
molecular_string = "CC(=O)Nc1ccc(OC(=O)CC[C@@H](C)[C@H]2CC[C@H]3[C@@H]4[C@H](O)C[C@@H]5C[C@H](O)CC[C@]5(C)[C@H]4C[C@H](O)[C@]23C)cc1"
numeric_value = 4.39

[[record]]
molecular_string = "C[C@H](CCC(=O)OCc1ccc([N+](=O)[O-])cc1)[C@H]1CC[C@H]2[C@@H]3[C@H](O)C[C@@H]4C[C@H](O)CC[C@]4(C)[C@H]3C[C@H](O)[C@]12C"
numeric_value = 4.14

[[record]]
molecular_string = "Cc1ccc(COC(=O)CC[C@@H](C)[C@H]2CC[C@H]3[C@@H]4[C@H](O)C[C@@H]5C[C@H](O)CC[C@]5(C)[C@H]4CC[C@]23C)cc1"
numeric_value = 4.26


// query pIC50 value for entry C[C@H](CCC(=O)OCc1cccc(O)c1)[C@H]1CC[C@H]2[C@@H]3[C@@H](O)C[C@@H]4C[C@@H](O)CC[C@]4(C)[C@H]3CC[C@]12C
3.81

###

Test system: SW480
Assay explanation: Anticancer activity against human SW480 cells assessed as inhibition of cell proliferation by MTT assay
Format: functional, cell-based
Provide the reported pIC50 of each item.
Numbers only, as −log10 of the molar value.

Some compounds with recorded pIC50:
[[record]]
molecular_string = "C[C@H](CCC(=O)OCc1cccc(O)c1)[C@H]1CC[C@H]2[C@@H]3CC[C@@H]4C[C@H](O)CC[C@]4(C)[C@H]3CC[C@]12C"
numeric_value = 3.74

[[record]]
molecular_string = "COC(=O)c1ccc(COC(=O)CC[C@@H](C)[C@H]2CC[C@H]3[C@@H]4[C@H](O)C[C@@H]5C[C@H](O)CC[C@]5(C)[C@H]4C[C@H](O)[C@]23C)cc1"
numeric_value = 4.50

[[record]]
molecular_string = "COC(=O)c1ccc(COC(=O)CC[C@@H](C)[C@H]2CC[C@H]3[C@@H]4[C@H](O)C[C@@H]5C[C@H](O)CC[C@]5(C)[C@H]4CC[C@]23C)cc1"
numeric_value = 4.44


Here's the next entry for you.
API: value(readout= pIC50, system= SW480, query= COC(=O)[C@H](CCSC)NC(=O)CC[C@@H](C)[C@H]1CC[C@H]2[C@@H]3[C@H](O)C[C@@H]4C[C@H](O)CC[C@]4(C)[C@H]3C[C@H](O)[C@]12C )
4.19
